FYI, the data here is from ChEMBL document CHEMBL1201862.

Target: Protein skinhead-1 (Caenorhabditis elegans, UniProt P34707)
Sequence (P34707 whole entry): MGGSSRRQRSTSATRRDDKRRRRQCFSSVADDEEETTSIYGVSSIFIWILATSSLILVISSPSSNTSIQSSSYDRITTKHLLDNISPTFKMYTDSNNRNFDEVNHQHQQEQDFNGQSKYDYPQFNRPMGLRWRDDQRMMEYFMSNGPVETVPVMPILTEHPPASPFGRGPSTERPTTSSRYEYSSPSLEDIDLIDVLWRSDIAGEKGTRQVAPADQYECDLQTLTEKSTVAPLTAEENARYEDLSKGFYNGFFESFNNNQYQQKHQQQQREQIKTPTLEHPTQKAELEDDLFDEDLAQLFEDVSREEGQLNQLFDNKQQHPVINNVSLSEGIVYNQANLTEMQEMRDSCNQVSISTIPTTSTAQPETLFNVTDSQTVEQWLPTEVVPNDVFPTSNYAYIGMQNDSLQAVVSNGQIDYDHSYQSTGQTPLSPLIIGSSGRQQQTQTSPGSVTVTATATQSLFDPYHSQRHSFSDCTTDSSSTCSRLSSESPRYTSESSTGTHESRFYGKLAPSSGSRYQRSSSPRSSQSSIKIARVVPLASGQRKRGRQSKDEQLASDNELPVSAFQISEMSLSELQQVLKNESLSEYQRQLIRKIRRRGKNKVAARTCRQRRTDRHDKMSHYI
Type: functional
Active and inactive are the calls of the source.
Returns: one label drawn from t (active), f (inactive)

// known answers, use as guide
>>> class_label("FC(F)(F)c1ccc(-c2csc(-c3ccno3)n2)cc1")
"t"
>>> class_label("C#Cc1ccc2c(c1)COc1c3ccccc3nn1-2")
"f"
>>> class_label("CCOCCn1c(COc2ccccc2)nc2ccccc21")
"f"
>>> class_label("CCOC(=O)c1sc(NC(=O)CN2CC(C)OC(C)C2)nc1C (configuration not stated)")
"f"
>>> class_label("CN(C)c1cccc(O)c1")
"f"

Could you please tell me the result logged for Cc1c(-c2csc(N)n2)c2ccccc2n1C in this assay?
f

Now try FC(F)Oc1ccc(C2NC(c3ccccc3)=NO2)cc1 (configuration not stated) .
f

---

Target: Low molecular weight phosphotyrosine protein phosphatase (Homo sapiens);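 further: Dose-response confirmation assay measuring inhibition of LMPTP enzyme activity by fluorescence intensity read-out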
Sequence (P24666 whole entry): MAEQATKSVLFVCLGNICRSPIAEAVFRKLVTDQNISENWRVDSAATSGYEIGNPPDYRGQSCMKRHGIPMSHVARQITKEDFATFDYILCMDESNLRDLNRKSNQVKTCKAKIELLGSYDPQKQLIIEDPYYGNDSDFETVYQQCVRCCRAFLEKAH
Format: functional
Details: read-out: IC50_Mean
Active and inactive are the calls of the source.
Returns: one label drawn from active, inactive

// known answers, use as guide
>>> class_label("O=C(/C=C/c1ccc(Br)cc1)NC(=O)c1ccccc1O")
"active"
>>> class_label("O=C(N=Nc1c(O)[nH]c2ccc(F)cc12)c1ccc(NS(=O)(=O)c2cccs2)cc1")
"inactive"
>>> class_label("Cc1cccc(NC(=O)COc2ccc(/C=C\\c3nc(O)nc(O)c3[N+](=O)[O-])cc2)c1")
"inactive"
>>> class_label("Cc1ccc(-c2cc(-c3ccco3)c(C#N)c(=O)[nH]2)cc1")
"inactive"

Here is the next item to consider.
Could you please tell me the result logged for Cc1csc2nc(NC(=O)c3ccccc3)sc(=O)c12 in this assay?
inactive

---

Listed here are molecules together with their documented IC50.
Target: 1-phosphatidylinositol 4,5-bisphosphate phosphodiesterase gamma-1 (Homo sapiens)
Sequence (P19174 whole entry): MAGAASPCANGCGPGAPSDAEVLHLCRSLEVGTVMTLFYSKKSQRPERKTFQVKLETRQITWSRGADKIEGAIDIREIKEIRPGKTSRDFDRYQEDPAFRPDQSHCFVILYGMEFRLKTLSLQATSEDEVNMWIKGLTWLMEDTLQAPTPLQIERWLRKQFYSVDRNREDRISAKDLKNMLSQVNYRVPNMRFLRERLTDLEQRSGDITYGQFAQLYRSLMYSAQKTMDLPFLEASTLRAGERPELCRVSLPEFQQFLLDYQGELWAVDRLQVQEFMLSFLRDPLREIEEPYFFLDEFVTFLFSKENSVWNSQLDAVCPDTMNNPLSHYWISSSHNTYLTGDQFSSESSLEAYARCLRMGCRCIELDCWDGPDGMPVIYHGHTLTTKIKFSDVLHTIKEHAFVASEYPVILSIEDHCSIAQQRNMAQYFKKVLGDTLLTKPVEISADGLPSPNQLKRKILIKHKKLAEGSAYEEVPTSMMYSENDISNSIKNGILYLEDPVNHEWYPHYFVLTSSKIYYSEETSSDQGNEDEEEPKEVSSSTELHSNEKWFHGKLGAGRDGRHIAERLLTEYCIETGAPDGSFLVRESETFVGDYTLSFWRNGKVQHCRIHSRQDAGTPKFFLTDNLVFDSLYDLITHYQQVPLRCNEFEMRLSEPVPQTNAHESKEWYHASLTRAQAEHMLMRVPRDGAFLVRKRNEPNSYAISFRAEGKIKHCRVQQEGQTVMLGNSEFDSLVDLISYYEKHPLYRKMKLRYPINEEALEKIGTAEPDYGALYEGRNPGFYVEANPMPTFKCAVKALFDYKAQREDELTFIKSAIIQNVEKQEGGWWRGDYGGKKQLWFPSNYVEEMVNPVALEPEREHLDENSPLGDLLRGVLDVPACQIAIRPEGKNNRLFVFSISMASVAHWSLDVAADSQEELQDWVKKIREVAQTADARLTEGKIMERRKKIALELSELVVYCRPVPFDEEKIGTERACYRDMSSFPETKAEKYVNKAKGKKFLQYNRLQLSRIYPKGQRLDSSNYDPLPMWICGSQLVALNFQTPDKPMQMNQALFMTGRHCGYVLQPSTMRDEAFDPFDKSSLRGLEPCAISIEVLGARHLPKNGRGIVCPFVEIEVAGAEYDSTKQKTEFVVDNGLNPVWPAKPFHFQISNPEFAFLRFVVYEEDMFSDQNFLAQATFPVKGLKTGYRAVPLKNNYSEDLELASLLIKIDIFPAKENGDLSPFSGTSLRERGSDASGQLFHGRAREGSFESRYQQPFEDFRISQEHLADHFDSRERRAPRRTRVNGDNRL
Assay: Counterscreen for inhibitors of phospholipase C isozymes (PLC-B3): Fluorescence-based biochemical high throughput dose response assay to identify inhibitors of phospholipase C isozymes (PLC-gamma1).
The source made the active and inactive calls.

Example results:
>>> recorded_measurement("O=C1C=C(O)c2c(O)cc(O)c(O)c2C1=O")
"> 40.8 µM (inactive)"
>>> recorded_measurement("CC1(CC(=O)N/N=C/c2cc([N+](=O)[O-])c(O)cc2O)OCCO1")
"> 122 µM (inactive)"
>>> recorded_measurement("O=C(CC1S/C(=N\\c2ccccc2)N(CCc2c[nH]c3ccccc23)C1=O)Nc1ccccc1F (centres undefined)")
"> 122 µM (inactive)"

Bench note: what IC50 did CCOc1cccc(C(=O)Nc2ccc(NC(=O)c3ccccc3)c(C)c2)c1 show?
> 122 µM (inactive)

---

Target: Induced myeloid leukemia cell differentiation protein Mcl-1 (Homo sapiens)
Sequence (Q07820 whole entry): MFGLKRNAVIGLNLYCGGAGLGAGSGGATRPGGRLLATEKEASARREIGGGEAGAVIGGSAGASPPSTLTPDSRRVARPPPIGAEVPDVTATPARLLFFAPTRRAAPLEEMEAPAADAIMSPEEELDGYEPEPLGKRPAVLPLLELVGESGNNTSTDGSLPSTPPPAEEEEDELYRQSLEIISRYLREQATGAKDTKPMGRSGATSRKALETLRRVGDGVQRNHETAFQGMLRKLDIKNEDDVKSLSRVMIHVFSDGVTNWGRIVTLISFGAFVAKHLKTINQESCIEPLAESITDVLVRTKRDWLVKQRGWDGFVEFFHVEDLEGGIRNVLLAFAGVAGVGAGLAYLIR
Assay type: functional
Active and inactive are the calls of the source.
Listed here are compounds together with their documented IC50.

Example results:
>>> recorded_measurement("Cc1ccc(NC(=O)CN2C(=O)N/C(=C/c3cccn3-c3ccc(C(=O)O)cc3)C2=O)cc1")
"0.996 µM (not active)"
>>> recorded_measurement("O=C(CSc1ccsc1[N+](=O)[O-])Nc1cc(F)ccc1F")
"6.52 µM (not active)"
>>> recorded_measurement("O=C(CSc1nnc(-c2ccco2)c(-c2ccco2)n1)Nc1ccccc1")
"3.11 µM (active)"
>>> recorded_measurement("CCOC(=O)c1c(C)oc2c1c(CN1CCN(CCO)CC1)c(O)c1ccccc12")
"1.13 µM (active)"
>>> recorded_measurement("Cc1cc(C(=O)N/N=C/c2cc(N=Nc3ccccc3)ccc2O)[nH]n1")
"2.22 µM (active)"

Bench note: what IC50 did O=C(O)CSc1cc(C(=O)c2cc(F)ccc2O)cn2c(=O)c3c(-c4ccccc4)csc3nc12 show?
2.79 µM (active)

Now try COC(=O)c1ccc2nc(Nc3nc4ccc(F)cc4s3)sc2c1 .
1.11 µM (active)

Now try CCN1C(=O)C(C)S/C1=N\S(=O)(=O)c1ccc(F)cc1 (centres undefined) .
4.37 µM (not active)

Now try O=C(O)C1Nc2c(C(=O)N3CCOCC3)cccc2C2C=CCC12 (centres undefined) .
2.78 µM (not active)

---

Target: Aminopeptidase N (Plasmodium falciparum FcB1/Columbia, UniProt O96935)
Sequence (O96935 whole entry): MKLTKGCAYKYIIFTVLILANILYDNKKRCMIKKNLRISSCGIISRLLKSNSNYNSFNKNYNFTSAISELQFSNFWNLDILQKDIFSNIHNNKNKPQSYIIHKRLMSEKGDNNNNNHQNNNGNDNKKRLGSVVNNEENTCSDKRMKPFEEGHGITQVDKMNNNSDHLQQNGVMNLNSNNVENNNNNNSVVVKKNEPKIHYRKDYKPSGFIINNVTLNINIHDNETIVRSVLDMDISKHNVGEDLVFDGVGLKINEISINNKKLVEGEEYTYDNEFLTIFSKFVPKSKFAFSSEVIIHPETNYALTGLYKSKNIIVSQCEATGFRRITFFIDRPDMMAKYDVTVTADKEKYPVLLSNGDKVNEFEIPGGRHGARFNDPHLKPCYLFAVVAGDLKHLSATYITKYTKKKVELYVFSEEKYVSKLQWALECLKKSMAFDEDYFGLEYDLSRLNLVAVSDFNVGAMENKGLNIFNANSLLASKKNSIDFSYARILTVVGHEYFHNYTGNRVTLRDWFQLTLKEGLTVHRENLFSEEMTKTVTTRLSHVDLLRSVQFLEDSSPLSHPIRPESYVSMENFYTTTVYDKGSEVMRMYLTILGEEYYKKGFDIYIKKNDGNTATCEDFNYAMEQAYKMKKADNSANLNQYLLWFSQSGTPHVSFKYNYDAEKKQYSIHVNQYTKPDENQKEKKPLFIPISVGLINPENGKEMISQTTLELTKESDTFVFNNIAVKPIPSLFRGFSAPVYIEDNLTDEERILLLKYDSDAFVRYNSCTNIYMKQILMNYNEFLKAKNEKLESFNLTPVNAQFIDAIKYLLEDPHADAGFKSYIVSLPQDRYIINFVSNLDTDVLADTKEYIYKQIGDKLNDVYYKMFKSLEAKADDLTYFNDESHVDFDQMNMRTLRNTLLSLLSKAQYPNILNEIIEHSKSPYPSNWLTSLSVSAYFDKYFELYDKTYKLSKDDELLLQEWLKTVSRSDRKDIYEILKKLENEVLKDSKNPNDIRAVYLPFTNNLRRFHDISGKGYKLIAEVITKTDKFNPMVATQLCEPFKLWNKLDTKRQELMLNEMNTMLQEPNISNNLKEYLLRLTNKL
Assay: malaria alanyl aminopeptidase activity blockers – biochemical, fluorogenic H-Leu-NHMec substrate, 1536-well (AID 1445)
Parameters: species or system Plasmodium falciparum 3D7, 3D7
Activity calls are given as the source filed them.
Listed here are molecules together with their documented IC50.

>>> recorded_measurement("COc1cc(/C=C2\\SC(=S)N(C(Cc3ccccc3)C(=O)O)C2=O)ccc1O (centres undefined)")
"42.3 µM (active)"

Bench note: what IC50 did O=C(CSc1nnc(-c2ccco2)c(-c2ccco2)n1)Nc1ccccc1 show?
97.7 µM (active)

Now try CCn1c(=N)c(C(=O)NCCCOC)cc2c(=O)n3cccc(C)c3nc21 .
50.3 µM (active)

Now try CCCS(=O)(=O)N1CCC(C(=O)NCc2ccc(F)cc2)CC1 .
31.6 µM (active)

---

Listed here are molecules together with their documented AC50.
Biological target: Cytochrome P450 2D6 (Homo sapiens);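 further: CYP2D6 member of a cytochrome P450 panel assay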
Sequence (P10635 whole entry): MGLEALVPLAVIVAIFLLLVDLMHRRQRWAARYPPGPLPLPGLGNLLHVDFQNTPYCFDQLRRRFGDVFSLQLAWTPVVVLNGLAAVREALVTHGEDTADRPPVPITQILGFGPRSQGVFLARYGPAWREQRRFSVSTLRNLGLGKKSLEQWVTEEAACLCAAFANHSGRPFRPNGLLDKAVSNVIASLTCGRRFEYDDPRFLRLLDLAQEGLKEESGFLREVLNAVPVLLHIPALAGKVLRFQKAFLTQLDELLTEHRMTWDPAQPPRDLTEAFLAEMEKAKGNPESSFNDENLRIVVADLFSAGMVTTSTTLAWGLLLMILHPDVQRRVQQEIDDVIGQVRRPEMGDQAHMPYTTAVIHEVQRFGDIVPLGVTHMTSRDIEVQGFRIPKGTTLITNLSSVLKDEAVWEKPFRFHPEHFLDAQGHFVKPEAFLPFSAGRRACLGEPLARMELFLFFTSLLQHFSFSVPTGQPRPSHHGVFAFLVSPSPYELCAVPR
Calls of active or inactive are those of the source.

Example results:
>>> recorded_measurement("N#CC(C#N)=Cc1ccc(O)c(O)c1")
"20 µM (inconclusive)"
>>> recorded_measurement("COc1cc(NC(=O)COC(=O)c2nc3nc(C)cc(C)n3n2)cc(OC)c1")
"15.8 µM (inconclusive)"
>>> recorded_measurement("Cc1ccc(C(c2ccc(C)o2)c2cccc([N+](=O)[O-])c2O)o1")
"14.1 µM (inconclusive)"
>>> recorded_measurement("COc1cccc(C2NC(c3cccc(OC)c3O)C(C)C(=O)C2C)c1O (stereo not given)")
"7.94 µM (inconclusive)"
>>> recorded_measurement("COc1ncc2nc(CCc3ccccc3)c(=O)n(CCC#N)c2n1")
"25.1 µM (inconclusive)"
>>> recorded_measurement("Cc1noc(C)c1-c1ccc2ncnc(NCc3ccccc3)c2c1")
"39.8 µM (inconclusive)"

Bench note: what AC50 did O=S(=O)(c1ccccc1)N1CCC2(CCN(Cc3nccs3)CC2)CC1 show?
25.1 µM (inconclusive)

Now try Nc1nc(SCCc2ccccc2)c2nc[nH]c2n1 .
3.98 µM (inconclusive)

Now try Cc1cc(Cl)ccc1OCCCC(=O)N1CCN(C)CC1 .
14.1 µM (inconclusive)

Now try OCCN(CCO)c1nc(N2CCCCC2)c2nc(N(CCO)CCO)nc(N3CCCCC3)c2n1 .
10 µM (active)

Now try COc1ccc(OC)c(/C=N/NC(=O)c2csc3ccccc23)c1 .
20 µM (inconclusive)

---

Biological target: UniProt:P38532
Sequence (P38532 whole entry): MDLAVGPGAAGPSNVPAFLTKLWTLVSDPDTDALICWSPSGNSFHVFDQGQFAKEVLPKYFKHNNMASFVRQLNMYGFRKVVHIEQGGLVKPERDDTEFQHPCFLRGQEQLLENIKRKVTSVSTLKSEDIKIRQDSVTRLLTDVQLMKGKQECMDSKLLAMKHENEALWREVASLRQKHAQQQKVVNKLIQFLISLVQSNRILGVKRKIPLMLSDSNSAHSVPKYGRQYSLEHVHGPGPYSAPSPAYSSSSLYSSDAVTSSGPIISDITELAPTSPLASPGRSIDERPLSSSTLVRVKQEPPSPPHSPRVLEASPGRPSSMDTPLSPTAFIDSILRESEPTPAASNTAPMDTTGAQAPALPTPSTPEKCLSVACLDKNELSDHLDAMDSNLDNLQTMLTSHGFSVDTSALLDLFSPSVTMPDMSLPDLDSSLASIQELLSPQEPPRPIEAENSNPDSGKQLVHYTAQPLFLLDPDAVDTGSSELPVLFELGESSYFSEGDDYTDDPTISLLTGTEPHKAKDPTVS
Test: enhancement of HSF1-driven luciferase signal – cell-based, NIH3T3, luminescence, dose retest, confirmation (AID 435004);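 further: stress induced by proteasome inhibitor MG132 added 30 min after compound; luciferase reporter driven by HSF1 response element in NIH3T3 cells; actives raise luminescence as potentiators of the MG132 stress response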
Format: functional
Active and inactive are the calls of the source.
Experimental readout: EC50

Example results:
>>> recorded_measurement("CCn1nc(C)cc1C(=O)Sc1ccc(Cl)cc1Cl")
"14.9 µM (active)"
>>> recorded_measurement("C=CCN(C(=O)CCc1ccccc1OC)c1nc(-c2ccc(S(C)(=O)=O)cc2)cs1")
"> 260 µM (inactive)"
>>> recorded_measurement("CCCCOc1ccc(-c2nc(/C=N/c3nccs3)c(O)o2)cc1")
"> 260 µM (inactive)"
>>> recorded_measurement("O=C(c1ccc2c(=O)n(C3CCCC3)c(=S)[nH]c2c1)N1CCc2ccccc21")
"> 260 µM (inactive)"
>>> recorded_measurement("COc1cccc(C(=O)COC(=O)C(C)N2C(=O)C3C4C=CC(C4)C3C2=O)c1 (stereo unspecified)")
"> 260 µM (inactive)"

Bench note: what EC50 did O=C(Nc1ccccc1O)c1cccc(S(=O)(=O)Nc2ccccc2O)c1 show?
> 260 µM (inactive)
